test system: CCRF-CEM; experiment: MTS cytotoxicity assay, 72 h; assay type: cell-based; conditions: Homo sapiens, CCRF-CEM, 72 h, read-out: IC50 CCRF-CEM, MTS assay, 3-day incubation, mean ± SD of 3 experiments
VALUE TYPE: IC50 (µM)

[[record]]
molecule = "COc1cc2c(c(OC)c1OC)-c1ccc(NCCCCC3=C4C(C)=CC(C)=[N+]4[B-](F)(F)n4c(C)cc(C)c43)c(=O)cc1[C@@H](NC(C)=O)CC2 [CB10]"
result_units = "µM"
val = 7.13

[[record]]
molecule = "COc1cc(C2=C3C(C)=CC(C)=[N+]3[B-](F)(F)n3c(C)cc(C)c32)ccc1OCc1cn([C@H]2CCc3cc(OC)c(OC)c(OC)c3-c3ccc(OC)c(=O)cc32)n[n+]1C [CB9]"
result_units = "µM"
val = 4.81

[[record]]
molecule = "COc1cc2c(c(OC)c1OC)-c1ccc(OC)c(=O)cc1[C@@H](NC(=O)CCC1=C3C(C)=CC(C)=[N+]3[B-](F)(F)n3c(C)cc(C)c31)CC2 [CB1]"
result_units = "µM"
val = 0.4

[[record]]
molecule = "COc1cc2c(c(OC)c1OC)-c1ccc(OC)c(=O)cc1[C@@H](n1cc(CCCC3=C4C(C)=CC(C)=[N+]4[B-](F)(F)n4c(C)cc(C)c43)[n+](C)n1)CC2 [CB7]"
result_units = "µM"
val = 0.84

[[record]]
molecule = "COc1cc(C2=C3C(C)=CC(C)=[N+]3[B-](F)(F)n3c(C)cc(C)c32)ccc1OCc1cn([C@H]2CCc3cc(OC)c(OC)c(OC)c3-c3ccc(OC)c(=O)cc32)nn1 [CB6]"
result_units = "µM"
val = 0.14

[[record]]
molecule = "COc1cc2c(c(OC)c1OC)-c1ccc(N(C)C(=O)CCC3=C4C(C)=CC(C)=[N+]4[B-](F)(F)n4c(C)cc(C)c43)c(=O)cc1[C@@H](NC(C)=O)CC2 [CB12]"
result_units = "µM"
val = 5.54

[[record]]
molecule = "COc1cc2c(c(OC)c1OC)-c1ccc(OC)c(=O)cc1[C@@H](NC(=O)CCCC[N+](C)(C)CCCCC1=C3C(C)=CC(C)=[N+]3[B-](F)(F)n3c(C)cc(C)c31)CC2 [CB3]"
result_units = "µM"
val = 9.33

